Entry source: ChEMBL document CHEMBL5107979

# experimental.target: Serine/threonine-protein kinase B-raf (Homo sapiens, UniProt P15056, V600E)
# Sequence (P15056 2-766 V600E limits assumed): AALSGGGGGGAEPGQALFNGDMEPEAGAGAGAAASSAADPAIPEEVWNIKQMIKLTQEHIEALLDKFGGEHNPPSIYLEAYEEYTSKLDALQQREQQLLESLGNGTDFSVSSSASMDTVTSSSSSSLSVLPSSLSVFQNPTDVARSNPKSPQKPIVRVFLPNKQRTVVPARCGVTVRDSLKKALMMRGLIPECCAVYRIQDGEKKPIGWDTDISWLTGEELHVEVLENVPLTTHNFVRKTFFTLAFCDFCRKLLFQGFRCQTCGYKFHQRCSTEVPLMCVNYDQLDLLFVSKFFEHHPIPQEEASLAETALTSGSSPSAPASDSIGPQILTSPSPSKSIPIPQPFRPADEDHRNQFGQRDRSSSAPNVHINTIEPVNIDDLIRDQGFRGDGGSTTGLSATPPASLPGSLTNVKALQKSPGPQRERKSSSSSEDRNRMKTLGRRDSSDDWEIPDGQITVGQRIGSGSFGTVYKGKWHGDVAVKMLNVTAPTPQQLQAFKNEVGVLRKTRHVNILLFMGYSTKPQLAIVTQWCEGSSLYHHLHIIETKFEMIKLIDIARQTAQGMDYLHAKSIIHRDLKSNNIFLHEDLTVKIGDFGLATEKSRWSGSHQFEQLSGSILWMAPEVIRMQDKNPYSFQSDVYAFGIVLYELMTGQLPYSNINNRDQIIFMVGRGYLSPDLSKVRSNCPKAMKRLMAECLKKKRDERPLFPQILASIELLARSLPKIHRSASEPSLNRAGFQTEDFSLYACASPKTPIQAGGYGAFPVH
# protocol.summary: Inhibition of BRAF V600E mutant (unknown origin) using MEK1 (K97R) as substrate in presence of [gamma-33P]ATP by radiometric assay
pIC50: −log10 of the molar value.
1 means recorded pIC50 is 8 or above; 0 means it is below 8.

Some entries whose results are on file:
CCCS(=O)(=O)Nc1ccc(F)c(C(=O)c2c[nH]c3ncc(-c4ccc(C(=O)NCCOCCOCCOCCCCC(=O)N[C@H](C(=O)N5C[C@H](O)C[C@H]5C(=O)NCc5ccc(-c6scnc6C)cc5)C(C)(C)C)cc4)cc23)c1F :: 1
CCCS(=O)(=O)Nc1ccc(F)c(C(=O)c2c[nH]c3ncc(-c4ccc(C(=O)NCCOCCOCCOCCOc5cc(-c6scnc6C)ccc5CNC(=O)[C@@H]5C[C@@H](O)CN5C(=O)[C@H](C(C)C)N5Cc6ccccc6C5=O)cc4)cc23)c1F :: 1

stdin: Decide: is the reported value of pIC50 for CCCS(=O)(=O)Nc1ccc(F)c(C(=O)c2c[nH]c3ncc(-c4ccc(CNC(=O)CCCCOCCOCCOCCOc5cc(-c6scnc6C)ccc5CNC(=O)[C@@H]5C[C@@H](O)CN5C(=O)[C@H](C(C)C)N5Cc6ccccc6C5=O)cc4)cc23)c1F equal to or greater than 8?
stdout: 1

stdin: Decide: is the reported value of pIC50 for CCCS(=O)(=O)Nc1ccc(F)c(C(=O)c2c[nH]c3ncc(-c4ccc(C(=O)NCCCCCCOCCCCCOCCCCC(=O)N[C@H](C(=O)N5C[C@H](O)C[C@H]5C(=O)NCc5ccc(-c6scnc6C)cc5)C(C)(C)C)cc4)cc23)c1F equal to or greater than 8?
stdout: 0

---

# protocol.summary: Plasma protein binding in human at 0.5 mg/ml by HPLC analysis
# Format: ADME, cell-free
# condition.summary: read-out: PPB (converted)
endpoint: fraction unbound at 0.5 mg/ml
Please give the numeric answer without any surrounding text.

Some entries whose results are on file:
CCCS(=O)(=O)Nc1ccc(F)c(C(=O)c2c[nH]c3ncc(-c4ccc(N5CCN(CC(=O)N[C@H](C(=O)N6C[C@H](O)C[C@H]6C(=O)NCc6ccc(-c7scnc7C)cc6)C(C)(C)C)CC5)cc4)cc23)c1F :: 0.04
CCN(C)S(=O)(=O)Nc1ccc(F)c(C(=O)c2c[nH]c3ncc(-c4ccc(N5CCN(CC(=O)N[C@H](C(=O)N6C[C@H](O)C[C@H]6C(=O)NCc6ccc(-c7scnc7C)cc6)C(C)(C)C)CC5)cc4)cc23)c1F :: 0.04

stdin: If you can, please state the reported fraction unbound at 0.5 mg/ml value of CCCS(=O)(=O)Nc1ccc(F)c(C(=O)c2c[nH]c3ncc(-c4ccc(C(=O)NCCOCCOCCOCCOc5cc(-c6scnc6C)ccc5CNC(=O)[C@@H]5C[C@@H](O)CN5C(=O)[C@H](C(C)C)N5Cc6ccccc6C5=O)cc4)cc23)c1F .
stdout: 0.04

stdin: If you can, please state the reported fraction unbound at 0.5 mg/ml value of CCCS(=O)(=O)Nc1ccc(F)c(C(=O)c2c[nH]c3ncc(-c4ccc(CNC(=O)CCCCOCCOCCOCCOc5cc(-c6scnc6C)ccc5CNC(=O)[C@@H]5C[C@@H](O)CN5C(=O)[C@H](C(C)C)N5Cc6ccccc6C5=O)cc4)cc23)c1F .
stdout: 0.04

stdin: If you can, please state the reported fraction unbound at 0.5 mg/ml value of CCCS(=O)(=O)Nc1ccc(F)c(C(=O)c2c[nH]c3ncc(-c4ccc(C(=O)NCCOCCOCCOCCCCC(=O)N[C@H](C(=O)N5C[C@H](O)C[C@H]5C(=O)NCc5ccc(-c6scnc6C)cc5)C(C)(C)C)cc4)cc23)c1F .
stdout: 0.05

stdin: If you can, please state the reported fraction unbound at 0.5 mg/ml value of CCCS(=O)(=O)Nc1ccc(F)c(C(=O)c2c[nH]c3ncc(-c4ccc(C(=O)NCCOCCOCC(=O)N[C@H](C(=O)N5C[C@H](O)C[C@H]5C(=O)NCc5ccc(-c6scnc6C)cc5)C(C)(C)C)cc4)cc23)c1F .
stdout: 0.05

stdin: If you can, please state the reported fraction unbound at 0.5 mg/ml value of CCCS(=O)(=O)Nc1ccc(F)c(C(=O)c2c[nH]c3ncc(-c4ccc(C(=O)NCCCCCCOCCCCCOCCCCC(=O)N[C@H](C(=O)N5C[C@H](O)C[C@H]5C(=O)NCc5ccc(-c6scnc6C)cc5)C(C)(C)C)cc4)cc23)c1F .
stdout: 0.04
